All figures here come from ChEMBL document CHEMBL5137023.

target: CDK9/cyclin T1 (Homo sapiens); assay: Inhibition of CDK9/Cyclin T1 (unknown origin) preincubated for 10 mins followed by ATP and CTD3 addition and measured after 30 mins by mobility shift assay; format: protein-complex assay

# compound, IC50
records = [
    ("CCN1C(=O)COc2c(CN3CCOCC3)cc(Nc3nccc(-c4ccc(F)cc4OCc4ccccc4)n3)cc21", "> 100 nM"),
    ("CCN1C(=O)COc2c(CN3CCOCC3)cc(Nc3cc(-c4ccc(F)cc4OC)c(Cl)cn3)cc21", "80 nM"),
    ("CCN1C(=O)COc2c(CN3CCOCC3)cc(Nc3nccc(-c4ccc5nnn(C(C)C)c5c4)n3)cc21", "13 nM"),
    ("CCN1C(=O)COc2c(CN3CCOCC3)cc(Nc3nccc(-c4ccc(F)cc4OC)n3)cc21", "2.6 nM"),
    ("CCN1C(=O)COc2c(CN3CCC(N(C)C)C3)cc(Nc3ncc(F)c(-c4ccc(F)cc4OC)n3)cc21 (stereo not drawn)", "3.7 nM"),
    ("CCN1C(=O)COc2c(CN3CCNCC3)cc(Nc3ncc(F)c(-c4ccc(F)cc4OC)n3)cc21", "4.2 nM"),
    ("CCN1C(=O)COc2c(CN3CCC(N4CCOCC4)CC3)cc(Nc3ncc(F)c(-c4ccc(F)cc4OC)n3)cc21", "2.1 nM"),
    ("CCN1CCN(Cc2cc(Nc3ncc(F)c(-c4ccc(F)cc4OC)n3)cc3c2OCC(=O)N3CC)CC1", "4.4 nM"),
]

---

experiment: AUC(0 to t) in Sprague-Dawley rat at 1 mg/kg, iv bolus injection measured upto 24 hrs by LC-MS/MS analysis; type: ADME, organism-based; parameters: dose 1 mg/kg, time < 24 hrs, route iv; details: in vivo

# chemicalString, valueUnit, AUC(0-t) at 24 h
measured = [
    ("CCN1C(=O)COc2c(CN3CCN(S(C)(=O)=O)CC3)cc(Nc3ncc(F)c(-c4ccc(F)cc4OC)n3)cc21", "ng·h/mL", 245),
    ("CCN(CC)Cc1cc(Nc2ncc(F)c(-c3ccc(F)cc3OC)n2)cc2c1OCC(=O)N2CC", "ng·h/mL", 107),
]

---

experiment: Clearance in Sprague-Dawley rat at 1 mg/kg, iv bolus injection measured upto 24 hrs by LC-MS/MS analysis; assay type: ADME, organism-based; details: in vivo
clearance for assorted compounds

# chemicalString, clearance, mL/min/kg
records = [
    ("CCN1C(=O)COc2c(CN3CCN(S(C)(=O)=O)CC3)cc(Nc3ncc(F)c(-c4ccc(F)cc4OC)n3)cc21", 68.1),
    ("CCN(CC)Cc1cc(Nc2ncc(F)c(-c3ccc(F)cc3OC)n2)cc2c1OCC(=O)N2CC", 168),
]

---

experiment: Kinetic solubility of the compound in pH 7.4 PBS buffer incubated for 24 hrs under shaking condition by HPLC analysis; assay type: physicochemical; details: read-out: Kinetic_solubility

# chemicalString, valueUnit, solubility kinetic at 24 h
rows = [
    ("CCN(CC)Cc1cc(Nc2ncc(F)c(-c3ccc(F)cc3OC)n2)cc2c1OCC(=O)N2CC", "µg/mL", 3.9),
    ("CCN1C(=O)COc2c(CN3CCN(S(C)(=O)=O)CC3)cc(Nc3ncc(F)c(-c4ccc(F)cc4OC)n3)cc21", "µg/mL", 30.5),
]

---

# pIC50 listing for each entry below
target: CDK9/cyclin T1 (Homo sapiens, UniProt P50750); assay: Inhibition of CDK9/Cyclin T1 (unknown origin) preincubated for 10 mins followed by ATP and CTD3 addition and measured after 30 mins by mobility shift assay
Sequence (O60563 whole entry): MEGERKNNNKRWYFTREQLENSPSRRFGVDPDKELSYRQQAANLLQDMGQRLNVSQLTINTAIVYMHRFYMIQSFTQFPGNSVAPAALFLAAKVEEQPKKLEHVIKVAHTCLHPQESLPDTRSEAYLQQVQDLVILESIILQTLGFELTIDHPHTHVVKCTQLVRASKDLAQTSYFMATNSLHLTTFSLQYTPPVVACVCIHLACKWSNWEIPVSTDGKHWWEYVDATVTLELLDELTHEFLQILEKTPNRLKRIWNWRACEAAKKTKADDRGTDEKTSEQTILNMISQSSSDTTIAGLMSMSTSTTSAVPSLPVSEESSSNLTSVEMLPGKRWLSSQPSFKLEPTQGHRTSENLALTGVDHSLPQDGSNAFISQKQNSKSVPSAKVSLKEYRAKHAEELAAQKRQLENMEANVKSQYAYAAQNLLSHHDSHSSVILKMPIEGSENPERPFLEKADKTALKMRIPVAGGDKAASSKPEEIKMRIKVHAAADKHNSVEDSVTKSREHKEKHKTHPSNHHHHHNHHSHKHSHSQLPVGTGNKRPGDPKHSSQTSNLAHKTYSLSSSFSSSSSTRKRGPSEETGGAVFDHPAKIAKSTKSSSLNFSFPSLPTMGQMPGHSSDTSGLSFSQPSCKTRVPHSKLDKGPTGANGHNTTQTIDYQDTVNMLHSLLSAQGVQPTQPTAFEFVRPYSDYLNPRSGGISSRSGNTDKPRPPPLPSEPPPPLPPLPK
Sequence (P50750 whole entry): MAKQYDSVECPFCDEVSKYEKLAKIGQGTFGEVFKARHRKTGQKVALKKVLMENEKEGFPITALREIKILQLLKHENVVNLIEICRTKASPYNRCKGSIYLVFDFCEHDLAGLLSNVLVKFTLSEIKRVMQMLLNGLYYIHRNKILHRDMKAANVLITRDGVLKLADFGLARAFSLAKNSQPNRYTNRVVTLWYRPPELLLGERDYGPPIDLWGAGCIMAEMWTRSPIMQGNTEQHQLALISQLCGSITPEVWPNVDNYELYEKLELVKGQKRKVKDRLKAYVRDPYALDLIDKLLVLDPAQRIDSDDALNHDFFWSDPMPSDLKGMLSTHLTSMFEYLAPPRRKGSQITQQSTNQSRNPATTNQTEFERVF
pIC50: −log10 of the molar value.

# chemicalString, targetUnderTest, pIC50
measured = [
    ("CCN1C(=O)COc2c(CN3CCSCC3)cc(Nc3ncc(F)c(-c4ccc(F)cc4OC)n3)cc21", "CDK9/cyclin T1 (Homo sapiens, UniProt P50750)", 8.44),
    ("CCN1C(=O)COc2c(CN3CCOCC3)cc(Nc3cc(-c4ccc(F)cc4OC)c(F)cn3)cc21", "CDK9/cyclin T1 (Homo sapiens, UniProt P50750)", 7.38),
    ("CCN1C(=O)COc2c(CN3CCN(C)CC3)cc(Nc3ncc(F)c(-c4ccc(F)cc4OC)n3)cc21", "CDK9/cyclin T1 (Homo sapiens, UniProt P50750)", 8.27),
    ("CCN1C(=O)COc2c(CN3CCCCC3)cc(Nc3ncc(F)c(-c4ccc(F)cc4OC)n3)cc21", "CDK9/cyclin T1 (Homo sapiens, UniProt P50750)", 8.57),
    ("CCN(CC)Cc1cc(Nc2ncc(F)c(-c3ccc(F)cc3OC)n2)cc2c1OCC(=O)N2CC", "CDK9/cyclin T1 (Homo sapiens, UniProt P50750)", 8.59),
    ("CCN1C(=O)COc2c(CN3CCOC[C@H]3C)cc(Nc3ncc(F)c(-c4ccc(F)cc4OC)n3)cc21", "CDK9/cyclin T1 (Homo sapiens, UniProt P50750)", 8.72),
    ("CCN1C(=O)COc2c(CN(C)CCOC)cc(Nc3ncc(F)c(-c4ccc(F)cc4OC)n3)cc21", "CDK9/cyclin T1 (Homo sapiens, UniProt P50750)", 8.64),
    ("CCN1C(=O)COc2c(CN3CCS(=O)(=O)CC3)cc(Nc3ncc(F)c(-c4ccc(F)cc4OC)n3)cc21", "CDK9/cyclin T1 (Homo sapiens, UniProt P50750)", 8.22),
]

---

assay: Volume of distribution at steady state in Sprague-Dawley rat at 1 mg/kg, iv bolus injection measured upto 24 hrs by LC-MS/MS analysis; assay type: ADME, organism-based; conditions: in vivo, read-out: Vdss
In this section, each of the compounds is paired with its reported Vd.
measuredQuantity: Vd (L/kg)

# chemicalString, result
data = [
    ("CCN(CC)Cc1cc(Nc2ncc(F)c(-c3ccc(F)cc3OC)n2)cc2c1OCC(=O)N2CC", 6.45),
    ("CCN1C(=O)COc2c(CN3CCN(S(C)(=O)=O)CC3)cc(Nc3ncc(F)c(-c4ccc(F)cc4OC)n3)cc21", 1.01),
]

---

assay: MRT(0 to t) in Sprague-Dawley rat at 1 mg/kg, iv bolus injection measured upto 24 hrs by LC-MS/MS analysis; assay type: ADME, organism-based; conditions: in vivo
Measured MRT last at 24 h, listed per entry.
measuredQuantity: MRT last at 24 h (min)

# chemicalString, measuredQuantity, result
records = [
    ("CCN1C(=O)COc2c(CN3CCN(S(C)(=O)=O)CC3)cc(Nc3ncc(F)c(-c4ccc(F)cc4OC)n3)cc21", "MRT last at 24 h", 14.4),
    ("CCN(CC)Cc1cc(Nc2ncc(F)c(-c3ccc(F)cc3OC)n2)cc2c1OCC(=O)N2CC", "MRT last at 24 h", 36.7),
]

---

test: MRT(0 to infinity) in Sprague-Dawley rat at 1 mg/kg, iv bolus injection measured upto 24 hrs by LC-MS/MS analysis; assay type: ADME, organism-based; conditions: in vivo

# chemicalString, MRT inf [min]
measured = [
    ("CCN1C(=O)COc2c(CN3CCN(S(C)(=O)=O)CC3)cc(Nc3ncc(F)c(-c4ccc(F)cc4OC)n3)cc21", 14.8),
    ("CCN(CC)Cc1cc(Nc2ncc(F)c(-c3ccc(F)cc3OC)n2)cc2c1OCC(=O)N2CC", 41.3),
]

---

assay: AUC(0 to infinity) in Sprague-Dawley rat at 1 mg/kg, iv bolus injection measured upto 24 hrs by LC-MS/MS analysis; assay type: ADME, organism-based; parameters: time < 24 hrs, dose 1 mg/kg, route iv; conditions: in vivo
Recorded AUC(0-inf) for the following compounds

# chemicalString, AUC(0-inf)
measured = [
    ("CCN(CC)Cc1cc(Nc2ncc(F)c(-c3ccc(F)cc3OC)n2)cc2c1OCC(=O)N2CC", "111 ng·h/mL"),
    ("CCN1C(=O)COc2c(CN3CCN(S(C)(=O)=O)CC3)cc(Nc3ncc(F)c(-c4ccc(F)cc4OC)n3)cc21", "246 ng·h/mL"),
]

---

molecular target: CDK9/cyclin T1 (Homo sapiens, UniProt P50750); assay: Inhibition of CDK9/Cyclin T1 (unknown origin) preincubated for 10 mins followed by ATP and CTD3 addition and measured after 30 mins by mobility shift assay
pIC50: −log10 of the molar value.
measuredQuantity: pIC50

# chemicalString, measuredQuantity, result
records = [
    ("CCN1C(=O)COc2c(CN3CCOCC3)cc(Nc3nccc(-c4cn(C)c5ccccc45)n3)cc21", "pIC50", 7.41),
    ("CCN1C(=O)COc2c(CN3CCN(S(C)(=O)=O)CC3)cc(Nc3ncc(F)c(-c4ccc(F)cc4OC)n3)cc21", "pIC50", 8.52),
    ("CCN1C(=O)COc2c(CN(C)CCN(C)C)cc(Nc3ncc(F)c(-c4ccc(F)cc4OC)n3)cc21", "pIC50", 8.66),
    ("CCN1C(=O)COc2c(CN(C)CCNC)cc(Nc3ncc(F)c(-c4ccc(F)cc4OC)n3)cc21", "pIC50", 8.60),
    ("CCN1C(=O)COc2c(CN3CCN(C(C)C)CC3)cc(Nc3ncc(F)c(-c4ccc(F)cc4OC)n3)cc21", "pIC50", 8.47),
    ("CCN1C(=O)COc2c(CN3CCOCC3)cc(Nc3ncc(F)c(-c4ccc(F)cc4OC)n3)cc21", "pIC50", 8.96),
    ("CCN1C(=O)COc2c(CN3CCOCC3)cc(Nc3nccc(-c4ccc5nc(C)n(C(C)C)c5c4)n3)cc21", "pIC50", 7.64),
    ("CCN1C(=O)COc2c(CN3CCOCC3)cc(Nc3nccc(-c4cccnc4)n3)cc21", "pIC50", 8.17),
    ("CCN1C(=O)COc2c(CN3CCOCC3)cc(Nc3nccc(-c4ccc5nn(C)c(C(C)C)c5c4)n3)cc21", "pIC50", 7.68),
    ("CCN1C(=O)COc2c(CN3CCN(C4COC4)CC3)cc(Nc3ncc(F)c(-c4ccc(F)cc4OC)n3)cc21", "pIC50", 8.80),
]
